test system: Mus musculus; assay: Antiinflammatory activity against carrageenan-induced hind paw oedema in mouse assessed as inhibition of swelling thickness at 200 mg/kg, po after 360 mins; type: functional; settings: 6 h
Label fulfilled when inhibition in vivo at 200 mg/kg is at or above 20%; anything below gets not fulfilled.

CNc1nnc(Cn2c(=O)oc3ccc(C)cc32)s1	not fulfilled
CNC(=S)NNC(=O)Cn1c(=O)oc2ccc(C)cc21	fulfilled
Cc1ccc2oc(=O)n(CC(=O)N/N=C/c3ccc(Cl)cc3)c2c1	not fulfilled
CCCNC(=S)NNC(=O)Cn1c(=O)oc2ccc(C)cc21	not fulfilled
